These measurements were taken from PubChem BioAssay (NCI).

# System: HL-60(TB) leukemia
# TEST: NCI tumour cell line growth inhibition, 48 h
Measured TGI values are reported for all entries that follow.

CN1C(=O)C23CCCC2CC1(c1ccccc1)S3 (stereo unspecified) ... > 100 µM
C=CCSC(C)=O ... > 100 µM
CC1=C[C@@H]2c3c(c(O)c(O)c4oc5cc(O)cc(O)c5c(=O)c34)[C@@H](c3cc(O)c(O)c4oc5cc(O)cc(O)c5c(=O)c34)[C@@H]2C(C)(C)C1 ... 27.4 µM

Q: What does the data say about its TGI? Entry: O=C(CC(C(=O)c1cccs1)c1ccsc1)c1ccc(Cl)s1 (stereo unspecified)
Result: > 100 µM

Q: Okay, and COc1ccc(C(=O)C(C(=O)C(=O)NCCCNC(=O)C(=O)C(C(=O)c2ccc(OC)cc2)c2ccc(OC)cc2)c2ccc(OC)cc2)cc1 (stereo unspecified) ?
Result: > 100 µM

Q: Now consider `O=C(C(=CN1CCN(C(=O)c2ccco2)C1=S)C(=O)c1ccccc1)c1ccccc1` and answer again.
Result: 34.9 µM

Q: What would you report for CSc1nc2c(c(=O)n1C)C(c1ccccc1)C1=C(N2)/C(=C/c2ccccc2)CCC1 (stereo unspecified) ?
Result: 48.4 µM

Q: Could you do the same for `COc1ccc2cc1Oc1ccc(cc1)C[C@@H]1c3cc(c(OC)cc3CCN1C)Oc1c(OC)c(OC)cc3c1[C@H](C2)N(C)CC3` , please?
Result: 30.8 µM

Q: Then what about the compound `N=C(CC(=O)Nc1ccccn1)c1ccccc1` ?
Result: > 100 µM

###

# System: SK-OV-3 ovarian
# TEST: NCI tumour cell line growth inhibition, 48 h
ATTRIBUTE MEASURED: TGI

Q: Quick one: TGI of `CC#COS(=O)(=O)c1ccc(C)cc1` ?
Result: > 100 µM

Q: Another molecule to look at: COC(=O)C12Oc3ccc(-c4ccc5c(c4O)C(O)=C4C(=O)CC(C)C(O)C4(C(=O)OC)O5)c(O)c3C(O)=C1C(=O)CC(C)C2O (centres undefined)
Result: > 82.1 µM

Q: Now consider `Cc1ccnc(Nc2[nH]c(C(=O)c3ccc(Cl)cc3)c(N)c2C(=S)Nc2ccccc2)c1` and answer again.
Result: 35 µM

Q: Try this molecule next: CC[C@]12C=CCN3CC[C@@]4(c5cc(Br)c(OC)cc5N(C)[C@H]4[C@@](O)(C(=O)NC(Cc4c[nH]c5ccccc45)C(=O)OC)[C@@H]1O)[C@@H]32 (some centres undefined)
Result: > 100 µM

###

This listing pairs molecules with measured log10 of TGI.
# Test system: UACC-257 melanoma
# TEST: NCI tumour cell line growth inhibition, 48 h
Friendly reminder: values = log10 of TGI, unit µM.

COC(=O)c1cc2cc(/C=C3/SC(=S)N(N(C(C)=O)C(C)=O)C3=O)oc2n1Cc1ccccc1 ... 1.87
CCN(CC)C(=S)SS(C)(=O)=O ... 1.72
N#Cc1c(N)nc(N2CCOCC2)c(C#N)c1-c1c(Cl)cccc1Cl ... 1.48

Q: Could you share what log10 of TGI was measured for Cc1ccc(S(=O)(=O)C2CC2(Cl)Cl)cc1 (stereo unspecified) , tested on UACC-257 melanoma?
Result: 1.64

Q: Also `CCc1c(C)c2cc(-n3c(-c4ccc(OC)cc4)csc3=N)c(O)c(C)c2oc1=O` , if possible.
Result: 1.15

Q: For `Cn1c(I)c(C#C[Si](C)(C)C)c(=O)[nH]c1=O` then?
Result: 0.59

Q: Check O=C(NC1=C(Cl)C(=O)c2ccccc2C1=O)C(=O)C(C(=O)c1ccc2ccccc2c1)C1OC(=O)c2ccccc21 (stereo unspecified) too.
Result: 0.74

Q: // query: O=C(CCc1ccccc1)CC1OC(=O)C(Cl)=C1Cl (stereo unspecified)
Result: 1.61

Q: Do the same for `CC(=O)Nc1ccc(/C=c2\sc3nnc(-c4cccnc4)n3c2=O)cc1` please
Result: 1.69

Q: Also `C[C@]12CCC(=O)C[C@@H]1CC[C@@H]1[C@@H]2CC[C@]2(C)[C@@H](OC(=O)N(CCCl)N=O)CC[C@@H]12` , if possible.
Result: 0.93

Q: // repeat for COc1cc(S(=O)(=O)Nc2ccc(-c3csc(N4C(=O)CSC4c4ccccc4O)n3)cc2)ccc1Cl (stereo unspecified) and report
Result: 1.99

###

# Test system: T-47D breast
# TEST: NCI tumour cell line growth inhibition, 48 h
Listing of entries alongside the reported TGI.

Example cases with answers are listed next.
O=C(NC1C/C(=N/O)c2c(Br)sc(Br)c21)C(F)(F)F (configuration not stated) ... > 100 µM
O=c1/c(=C/c2ccccn2)sc2nc3cc4c(cc3n12)OCCO4 ... > 100 µM
O=C(C(=CN1CCN(C(=O)c2ccco2)C1=S)C(=O)c1ccccc1)c1ccccc1 ... > 50 µM
COC(=O)c1cc(-c2ccc(S(C)(=O)=O)cc2)[nH]c1N/N=C/c1c(Cl)cccc1Cl ... > 35.7 µM
Cc1ccnc(Nc2[nH]c(C(=O)c3ccc(Cl)cc3)c(N)c2C(=S)Nc2ccccc2)c1 ... > 100 µM

Q: Would you kindly share the measured TGI for `COc1ccc(/C=C/C(=O)c2ccc(Br)cc2)cc1` ?
Result: > 100 µM

Q: Request: Nc1ccn(C2CCC(COP(=O)(O)OCC(O)COP(=O)(O)OCC3OC(n4cc(F)c(=O)[nH]c4=O)CC3O)O2)c(=O)n1 (configuration not stated)
Result: > 100 µM

###

# Tested on: RPMI-8226 leukemia
# TEST: NCI tumour cell line growth inhibition, 48 h
Where a SMILES comes first, the peptide text is derived from it. [ ]: non-standard residue; d: D form. The star is where a group is joined. ξ: configuration not given here. NMeF = CN[C@@H](Cc1ccccc1)C(=O)O; NMeV = CN[C@H](C(=O)O)C(C)C; ξNMeV = CNC(C(=O)O)C(C)C; Boc = CC(C)(C)OC(=O)*; OBn = c1ccc(CO*)cc1
ATTRIBUTE MEASURED: TGI

CC(C)C(C(=O)N(C)[C@H](C(=O)N1CCC[C@H]1C(=O)N(C)[C@@H](Cc1ccccc1)C(=O)OCc1ccccc1)C(C)C)N(C)C(=O)[C@@H](NC(=O)OC(C)(C)C)C(C)C (some centres undefined) (Boc-V[ξNMeV][NMeV]P[NMeF]-OBn) ... > 31.6 µM
O=C(C(=CN1CCN(C(=O)c2ccco2)C1=S)C(=O)c1ccccc1)c1ccccc1 ... > 50 µM

Q: Give RPMI-8226 leukemia TGI for CC1CN(CCO)CCN1c1ccccc1 (centres undefined)
Result: > 100 µM

Q: Same again, this time with CC(=O)OCC1OC(n2c(=S)n(-c3ccccc3)c(=O)c3cc(Br)ccc32)C(OC(C)=O)C1OC(C)=O (centres undefined)
Result: > 100 µM

###

# Tested on: A498 renal
# TEST: NCI tumour cell line growth inhibition, 48 h
Where a SMILES comes first, the peptide text is derived from it. [ ]: non-standard residue; d: D form. The star is where a group is joined. ξ: configuration not given here. NMeF = CN[C@@H](Cc1ccccc1)C(=O)O; NMeV = CN[C@H](C(=O)O)C(C)C; ξNMeV = CNC(C(=O)O)C(C)C; Boc = CC(C)(C)OC(=O)*; OBn = c1ccc(CO*)cc1
ATTRIBUTE MEASURED: TGI

# example entries with known answers
CC(C)C(C(=O)N(C)[C@H](C(=O)N1CCC[C@H]1C(=O)N(C)[C@@H](Cc1ccccc1)C(=O)OCc1ccccc1)C(C)C)N(C)C(=O)[C@@H](NC(=O)OC(C)(C)C)C(C)C (stereo partly drawn) (Boc-V[ξNMeV][NMeV]P[NMeF]-OBn) ... > 31.6 µM
N#Cc1ccc(C2SCc3nc4ccccc4n32)cc1 (stereo not drawn) ... > 100 µM
CCOC(=O)C1C(=O)CC(=O)C2CCCCC21 (stereo not drawn) ... > 100 µM
CCCCCCCCCCCCOC1C(COCCN2CCCCC2)OC2OC(C)(C)OC21 (stereo not drawn) ... 29.3 µM
CC/C=C\C[C@H]1C/C=C2/C(=O)C(Cl)=C[C@@H]2C/C=C\CCCC(=O)O1 ... 1.43 µM

Q: Reported TGI, compound COC(=O)c1ccccc1C1CN=NC12Cc1ccc3c(c1C2=O)CCC3 (stereo not drawn) : ____
Result: > 100 µM

Q: Try the compound `CN(C)CCCn1c(Cn2nc3ccccc3n2)nc2cc(C(F)(F)F)ccc21`
Result: 41.7 µM

Q: Thanks! And Fc1ccc(C(OCCN2CCC3CCC(C2)N3C/C=C/c2cccs2)c2ccc(F)cc2)cc1 (stereo not drawn) ?
Result: 21 µM

Q: Try this compound next: `C=CCOC(=O)Cn1ccc(=O)[nH]c1=O`
Result: > 100 µM

Q: Another compound to check: `CC(=O)[C@@]1(c2ccccc2)CC2(CCN(C)CC2)O[C@H]1C`
Result: > 100 µM

Q: Try this compound too: `CC(=O)Nc1ccc(/C=c2\sc3nnc(-c4cccnc4)n3c2=O)cc1`
Result: > 100 µM

Q: Again, but for CCC(Nc1ncnc2nc[nH]c12)C(=O)O (stereo not drawn)
Result: > 100 µM

Q: What do you get for `O=C1/C(=C/c2ccc([N+](=O)[O-])o2)Oc2ccc(Cl)cc21` ?
Result: 34 µM

Q: Repeat for the following compound: CCC(c1ccccc1)c1cc(C(C)(C)C)cc(C(C)(C)C)c1O (stereo not drawn)
Result: 33.9 µM

Q: How about this compound: COc1ccc(C(O)c2ccccn2)cc1 (stereo not drawn)
Result: > 100 µM

Q: # iterate: `CCCN(CCC)C(=O)c1c(N2CCN(C)CC2)c2cccnc2n2c(C)cnc12`
Result: > 100 µM

Q: And for `N=C(CC(=O)Nc1ccccn1)c1ccccc1` ?
Result: > 100 µM

Q: One more compound: Cc1cc(O)c2c(c1)C(C1c3cccc(O)c3C(=O)c3c(O)cc(C)cc31)c1cccc(O)c1C2=O (stereo not drawn)
Result: 4.53 µM
